Provenance of the data: the domain aggregation screens of Martell et al. (2025)

assay: soluble fraction after stress (log2 fold change); higher = more stays soluble; pooled small domains, quantitative proteomics; conditions: stress: 75 degC;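 further: 20 min heating vs room temperature control held 20 min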
Parameter: soluble fraction (log2). Scope: all listed entries.

As a guide, the following entries are already answered.
# RESIDUE_SEQUENCE, soluble fraction (log2)
measured = [
    ("HMTSPKSRIVSALLASPSRPEELAMRLGEDILTLMRTLTDFEASGIIQRLPDGRYTPTREYHLGLVDK", -0.12),
    ("HMAPAGGITRQDLFAWGLMGGEGSREKRQQLKKSLGLPSHLGTSGFLDALNLIATRDQVEALLHK", -0.564),
    ("HMSILTELDIGDKVEVVAGPFKGIQANITRIEPVRKEVTVILLDAPYQLPVTVDADYLKIIQKS", -1.63),
    ("HMTKIEYTEQEFNDFIQAYKNNRKMFPEDYIVKTQVVFINKGFSKSQADMIIAQIETRLRLQGE", -2.91),
    ("HMYPEETVNKILDVSMQLFLEKGYEHTSIQDIVNHLGGLSKGAIYHHFKSKEDILDGVMNKLYQNN", -1.58),
]

Request: Entry HMHNSQTIIDNIKRIANEQNISLSKLAVISGLGKNTITSMTAKTNIKIETLTAIAKSLNVSIHDLTGE : reported soluble fraction (log2) = ?
Response: -2.64

Request: Quick check: soluble fraction (log2) of HMDGTAKVAHMLVNELETFNRLKKHEIAYMLHIQPETLSRILNKLTRNGTIEIEKNSVVILNIQELKEIY ?
Response: -1.95
